Molecular target: Fuc(a1-2)Gal(b1-3)GalNAc(b1-3)Gal
Assay: glycan array binding signal (z-score within array); higher = stronger binding
Details: glycan notation: IUPAC condensed, linker removed
Only a selection was taken, and the strongest signals are over-represented in it overall.
Collected glycan array binding signal (z-score) values appear next to each entry.
Lab note: record the figure alone, no unit after it.

Param item = Apa (Mycobacterium tuberculosis), Rv1860 (protein) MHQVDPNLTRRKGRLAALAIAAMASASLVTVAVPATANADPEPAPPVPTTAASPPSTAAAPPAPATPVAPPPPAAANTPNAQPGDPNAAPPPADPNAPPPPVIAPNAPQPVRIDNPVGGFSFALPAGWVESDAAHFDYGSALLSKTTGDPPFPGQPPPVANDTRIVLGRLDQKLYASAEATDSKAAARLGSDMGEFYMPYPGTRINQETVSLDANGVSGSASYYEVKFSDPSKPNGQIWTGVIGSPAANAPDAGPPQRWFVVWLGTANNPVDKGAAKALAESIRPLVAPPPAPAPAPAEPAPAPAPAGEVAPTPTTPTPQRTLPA ; retrieve measured glycan array binding signal (z-score).
4.21

Same question, X56-1 (Clostridium perfringens), P26831 (protein) MGSSHHHHHHSSGLVPRGSHMASDPNRIIATYISNRQDAPTGNPDNIFDNNASTELVYKNPNRIDVGTYVGVKYSNPITLNNVEFLMGANSNPNDTMQKAKIQYTVDGREWIDLEEGVEYTMPGAIKVENLDLKVRGVRLIATEARENTWLGVRDINVNKKEDSNSGVEF this time
0.726

Another binder to check: SBD (Rhizopus oryzae), P07683 (protein) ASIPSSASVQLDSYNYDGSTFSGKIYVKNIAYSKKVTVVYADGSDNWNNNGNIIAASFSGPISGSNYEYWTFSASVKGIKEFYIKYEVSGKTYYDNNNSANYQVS
2.93
